- measuredTarget: Ataxin-2 (Homo sapiens) (UniProt Q99700)
- Sequence (Q99700 whole entry): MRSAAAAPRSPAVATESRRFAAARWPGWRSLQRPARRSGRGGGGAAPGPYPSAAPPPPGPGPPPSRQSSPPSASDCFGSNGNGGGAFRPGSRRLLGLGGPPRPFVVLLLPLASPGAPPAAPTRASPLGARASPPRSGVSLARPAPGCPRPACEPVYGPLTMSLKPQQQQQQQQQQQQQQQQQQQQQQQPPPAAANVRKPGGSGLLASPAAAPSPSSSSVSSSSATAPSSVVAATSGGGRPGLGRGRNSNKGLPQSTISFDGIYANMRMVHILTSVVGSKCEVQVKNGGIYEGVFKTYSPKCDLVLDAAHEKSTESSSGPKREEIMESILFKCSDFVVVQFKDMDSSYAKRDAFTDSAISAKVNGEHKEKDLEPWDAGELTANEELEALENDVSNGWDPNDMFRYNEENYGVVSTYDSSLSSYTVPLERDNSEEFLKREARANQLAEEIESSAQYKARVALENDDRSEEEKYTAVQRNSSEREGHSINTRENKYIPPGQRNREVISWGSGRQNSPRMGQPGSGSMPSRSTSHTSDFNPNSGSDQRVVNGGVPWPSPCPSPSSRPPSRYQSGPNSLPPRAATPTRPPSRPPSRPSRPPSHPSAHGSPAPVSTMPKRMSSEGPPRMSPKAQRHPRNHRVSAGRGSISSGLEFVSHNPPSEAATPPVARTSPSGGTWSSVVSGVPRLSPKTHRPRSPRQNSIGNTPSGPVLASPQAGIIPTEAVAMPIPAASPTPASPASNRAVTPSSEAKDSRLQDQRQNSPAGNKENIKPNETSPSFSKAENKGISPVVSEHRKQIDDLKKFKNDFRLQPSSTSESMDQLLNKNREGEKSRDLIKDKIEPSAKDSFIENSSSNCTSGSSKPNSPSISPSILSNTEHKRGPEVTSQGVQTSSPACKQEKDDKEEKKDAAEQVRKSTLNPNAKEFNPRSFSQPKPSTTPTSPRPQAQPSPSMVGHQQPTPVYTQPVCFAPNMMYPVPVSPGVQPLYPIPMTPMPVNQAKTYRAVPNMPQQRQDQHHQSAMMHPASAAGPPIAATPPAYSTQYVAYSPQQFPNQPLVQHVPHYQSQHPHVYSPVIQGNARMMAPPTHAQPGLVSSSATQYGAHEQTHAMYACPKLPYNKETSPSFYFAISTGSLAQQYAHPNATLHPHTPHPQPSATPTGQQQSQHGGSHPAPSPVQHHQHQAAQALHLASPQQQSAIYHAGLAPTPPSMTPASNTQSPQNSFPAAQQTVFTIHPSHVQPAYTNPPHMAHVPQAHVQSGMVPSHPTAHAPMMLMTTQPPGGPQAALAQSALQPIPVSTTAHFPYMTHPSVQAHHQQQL
- assayProcedure: qHTS for Inhibitors of ATXN expression.
- Assay type: functional
Screen size: about 400,000 compounds; about 2,100 (0.53%) were called active. Another 14% or so got no clear call; they are omitted. How the calls were made is not given here. Only a selection was taken, and actives are over-represented in it overall.
Outcome codes: active, inactive

>>> print(df.to_string())
                          structurenotation  classassignment
0  CC(=O)N1Cc2cc(C(=O)NCc3cccc(F)c3)nc(-c3cccc(C4=CCCCC4)c3)c2[C@H]1CCO           active
1  CCN(CC)c1cc(C)c2cc(NC(=O)/C=C/c3ccccc3Cl)ccc2n1           active
2      O=C(CSc1nnc(NC(=O)C2CC2)s1)NCc1cccs1         inactive
3  CCN(CC)c1cc(C)c2cc(NC(=O)c3ccc(Br)o3)ccc2n1           active
4  Cc1cccc(OCC(=O)Nc2ccc3nc(Nc4cccc(Cl)c4)cc(C)c3c2)c1         inactive
5  COc1ccc(Nc2cc(C)c3cc(NC(=O)c4cc(OC)cc(OC)c4)ccc3n2)cc1         inactive
6  CCn1nc(NC(=O)c2ccccc2)c2cc3cccc(C)c3nc21         inactive
7           CN=c1sc2c(n1C)C(=O)c1ccccc1C2=O           active
8  COc1cc(C(=O)OCc2ccc(C)cc2)cc(NC(=O)c2cccs2)c1OC         inactive
9  CCN(CC)c1cc(C)c2cc(NC(=O)c3cc(OC)cc(OC)c3)ccc2n1           active
